Experiment: in vivo
Settings: rat, iv, 1 mg/kg, T1/2
MEASURED PARAMETER: half-life (h)
Give bare numbers, in h.

Query :: Could you please provide reported half-life for CCCCC(=O)N(Cc1ccc(-c2ccccc2-c2nnn[nH]2)cc1)[C@H](C(=O)O)C(C)C [Valsartan, valsartan] ? Thanks!
Result :: 4.48

* * *

Record form. Attribute: pIC50. Fill in for each entry.
Molecular target: OAT1 (Homo sapiens, UniProt Q4U2R8)
Sequence (Q4U2R8 whole entry): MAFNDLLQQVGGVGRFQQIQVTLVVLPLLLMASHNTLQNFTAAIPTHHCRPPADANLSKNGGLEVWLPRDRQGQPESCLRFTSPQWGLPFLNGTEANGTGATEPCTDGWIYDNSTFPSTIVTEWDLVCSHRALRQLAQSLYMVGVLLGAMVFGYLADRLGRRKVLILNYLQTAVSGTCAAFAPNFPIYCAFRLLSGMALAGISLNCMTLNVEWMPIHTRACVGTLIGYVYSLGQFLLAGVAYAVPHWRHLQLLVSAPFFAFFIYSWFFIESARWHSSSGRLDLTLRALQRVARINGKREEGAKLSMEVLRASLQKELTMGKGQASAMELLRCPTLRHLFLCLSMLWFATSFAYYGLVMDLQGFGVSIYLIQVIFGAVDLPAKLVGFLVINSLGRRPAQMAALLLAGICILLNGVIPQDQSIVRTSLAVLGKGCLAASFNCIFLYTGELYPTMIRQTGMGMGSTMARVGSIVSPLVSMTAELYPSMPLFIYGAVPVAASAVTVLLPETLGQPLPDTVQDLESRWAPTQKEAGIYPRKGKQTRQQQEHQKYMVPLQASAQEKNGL
Assay: Inhibition of OAT1-mediated [3H]PAH uptake in HEK293-OAT1 cells
pIC50: −log10 of the molar value.

INSERT INTO results (compound, measured_parameter, measured_result) VALUES
  ('CC(C)=CCC[C@](C)(O[C@@H]1O[C@H](CO)[C@@H](O)[C@H](O)[C@H]1O)[C@H]1CC[C@]2(C)[C@@H]1[C@H](O)C[C@@H]1[C@@]3(C)CC[C@H](O)C(C)(C)[C@@H]3[C@@H](O[C@@H]3O[C@H](CO)[C@@H](O)[C@H](O)[C@H]3O[C@@H]3O[C@@H](C)[C@H](O)[C@@H](O)[C@H]3O)C[C@]12C [Re, ginsenoside Re]', 'pIC50', '< 4.00');

Parameter requested: pIC50. Apply to each item below.
1. CC(C)=CCC[C@](C)(O[C@@H]1O[C@H](CO[C@@H]2O[C@H](CO)[C@@H](O)[C@H](O)[C@H]2O)[C@@H](O)[C@H](O)[C@H]1O)[C@H]1CC[C@]2(C)[C@@H]1[C@H](O)C[C@@H]1[C@@]3(C)CC[C@H](O[C@@H]4O[C@H](CO)[C@@H](O)[C@H](O)[C@H]4O[C@@H]4O[C@H](CO)[C@@H](O)[C@H](O)[C@H]4O)C(C)(C)[C@@H]3CC[C@]12C [Rb1, ginsenoside Rb1]
2. CC(C)=CCC[C@](C)(O[C@@H]1O[C@H](CO[C@@H]2O[C@@H](CO)[C@H](O)[C@H]2O)[C@@H](O)[C@H](O)[C@H]1O)[C@H]1CC[C@]2(C)[C@@H]1[C@H](O)C[C@@H]1[C@@]3(C)CC[C@H](O[C@@H]4O[C@H](CO)[C@@H](O)[C@H](O)[C@H]4O[C@@H]4O[C@H](CO)[C@@H](O)[C@H](O)[C@H]4O)C(C)(C)[C@@H]3CC[C@]12C [Rc, ginsenoside Rc]

Result ::
< 4.00
< 4.00

* * *

Experiment: in vivo
Settings: rat, iv, 1 mg/kg, Vd
MEASURED PARAMETER: Vd

Query :: Using known records, supply Vd for CCCCC(=O)N(Cc1ccc(-c2ccccc2-c2nnn[nH]2)cc1)[C@H](C(=O)O)C(C)C
Result :: 4.7 L/kg

* * *

Assay: Plasma and liver distribution of Rc in rats after iv injection
Type: in vivo, rat
Details: rat, liver (versus plasma); rats, Rc 3 mg/kg iv, 2, 12 and 48 h; read-out: liver-to-plasma concentration ratio
MEASURED PARAMETER: Kp

Query :: Return Kp (reported value) for this compound: CC(C)=CCC[C@](C)(O[C@@H]1O[C@H](CO[C@@H]2O[C@@H](CO)[C@H](O)[C@H]2O)[C@@H](O)[C@H](O)[C@H]1O)[C@H]1CC[C@]2(C)[C@@H]1[C@H](O)C[C@@H]1[C@@]3(C)CC[C@H](O[C@@H]4O[C@H](CO)[C@@H](O)[C@H](O)[C@H]4O[C@@H]4O[C@H](CO)[C@@H](O)[C@H](O)[C@H]4O)C(C)(C)[C@@H]3CC[C@]12C [Rc, ginsenoside Rc]
Result :: 0.13 to 0.2

* * *

Experiment: Plasma pharmacokinetics of Rc in rats after repeated iv injection
Assay type: in vivo
Conditions: rat plasma, Rc 3 mg/kg/day iv for 5 days
MEASURED PARAMETER: C0 (µM)
Give bare numbers, in µM.

Query :: Tell me C0 reported for CC(C)=CCC[C@](C)(O[C@@H]1O[C@H](CO[C@@H]2O[C@@H](CO)[C@H](O)[C@H]2O)[C@@H](O)[C@H](O)[C@H]1O)[C@H]1CC[C@]2(C)[C@@H]1[C@H](O)C[C@@H]1[C@@]3(C)CC[C@H](O[C@@H]4O[C@H](CO)[C@@H](O)[C@H](O)[C@H]4O[C@@H]4O[C@H](CO)[C@@H](O)[C@H](O)[C@H]4O)C(C)(C)[C@@H]3CC[C@]12C [Rc, ginsenoside Rc]
Result :: 34

* * *

Consider the following compounds; for each one, report its Cmax.
Assay: Plasma pharmacokinetics of ginsenosides in rats after 1-week repeated RGE
Conditions: rat, plasma, po, 1.5 g/kg/day
Procedure: The rats were randomly divided into the control and RGE groups. The RGE group received a RGE suspension (1.5 g/mL/kg/day, in distilled water) for 7 days via oral gavage. The control group received distilled water for 7 days via oral gavage. […] Pharmacokinetic parameters were calculated from plasma concentration-time profile using non-compartment analysis of WinNonlin (version 5.1; Pharsights, Cary, NC, USA). […]
Answers are plain numbers, in ng/mL.

Worked cases, answers included:
INSERT INTO measurements (compound, unit_of_measure, measured_result) VALUES
  ('CC(C)=CCC[C@](C)(O[C@@H]1O[C@H](CO[C@@H]2O[C@H](CO)[C@@H](O)[C@H](O)[C@H]2O)[C@@H](O)[C@H](O)[C@H]1O)[C@H]1CC[C@]2(C)[C@@H]1[C@H](O)C[C@@H]1[C@@]3(C)CC[C@H](O[C@@H]4O[C@H](CO)[C@@H](O)[C@H](O)[C@H]4O[C@@H]4O[C@H](CO)[C@@H](O)[C@H](O)[C@H]4O)C(C)(C)[C@@H]3CC[C@]12C [Rb1, ginsenoside Rb1]', 'ng/mL', 17.8),
  ('CC(C)=CCC[C@](C)(O[C@@H]1O[C@H](CO[C@@H]2OC[C@H](O)[C@H](O)[C@H]2O)[C@@H](O)[C@H](O)[C@H]1O)[C@H]1CC[C@]2(C)[C@@H]1[C@H](O)C[C@@H]1[C@@]3(C)CC[C@H](O[C@@H]4O[C@H](CO)[C@@H](O)[C@H](O)[C@H]4O[C@@H]4O[C@H](CO)[C@@H](O)[C@H](O)[C@H]4O)C(C)(C)[C@@H]3CC[C@]12C [Rb2, ginsenoside Rb2]', 'ng/mL', 10),
  ('CC(C)=CCC[C@](C)(O[C@@H]1O[C@H](CO[C@@H]2O[C@@H](CO)[C@H](O)[C@H]2O)[C@@H](O)[C@H](O)[C@H]1O)[C@H]1CC[C@]2(C)[C@@H]1[C@H](O)C[C@@H]1[C@@]3(C)CC[C@H](O[C@@H]4O[C@H](CO)[C@@H](O)[C@H](O)[C@H]4O[C@@H]4O[C@H](CO)[C@@H](O)[C@H](O)[C@H]4O)C(C)(C)[C@@H]3CC[C@]12C [Rc, ginsenoside Rc]', 'ng/mL', 11.7);

Query :: Give me measured Cmax, please, for this compound: CC(C)=CCC[C@](C)(O[C@@H]1O[C@H](CO)[C@@H](O)[C@H](O)[C@H]1O)[C@H]1CC[C@]2(C)[C@@H]1[C@H](O)C[C@@H]1[C@@]3(C)CC[C@H](O[C@@H]4O[C@H](CO)[C@@H](O)[C@H](O)[C@H]4O[C@@H]4O[C@H](CO)[C@@H](O)[C@H](O)[C@H]4O)C(C)(C)[C@@H]3CC[C@]12C [Rd, ginsenoside Rd]
Result :: 5.1

* * *

Biological target: OATP1B1 (Homo sapiens, UniProt Q9Y6L6)
Sequence (Q9Y6L6 whole entry): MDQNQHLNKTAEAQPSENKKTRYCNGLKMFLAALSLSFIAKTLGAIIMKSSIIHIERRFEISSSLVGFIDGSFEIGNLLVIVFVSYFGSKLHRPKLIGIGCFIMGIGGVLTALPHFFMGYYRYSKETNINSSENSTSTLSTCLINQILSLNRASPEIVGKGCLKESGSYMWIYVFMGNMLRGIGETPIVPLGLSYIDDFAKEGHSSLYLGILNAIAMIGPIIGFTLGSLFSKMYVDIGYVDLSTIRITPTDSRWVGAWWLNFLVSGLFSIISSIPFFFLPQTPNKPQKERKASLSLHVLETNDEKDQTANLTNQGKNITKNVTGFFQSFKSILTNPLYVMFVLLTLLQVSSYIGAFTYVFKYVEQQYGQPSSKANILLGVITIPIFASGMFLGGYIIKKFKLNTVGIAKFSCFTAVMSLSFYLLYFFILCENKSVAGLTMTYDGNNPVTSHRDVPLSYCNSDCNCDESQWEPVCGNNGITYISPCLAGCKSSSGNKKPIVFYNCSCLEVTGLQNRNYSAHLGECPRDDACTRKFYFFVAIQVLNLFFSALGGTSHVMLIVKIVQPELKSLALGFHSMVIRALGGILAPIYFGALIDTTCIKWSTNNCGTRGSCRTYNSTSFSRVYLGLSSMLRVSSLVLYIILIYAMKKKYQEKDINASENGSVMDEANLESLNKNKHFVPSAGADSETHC
Assay: Inhibition of OATP1B1-mediated valsartan uptake in HEK293-OATP1B1 cells
Format: cell-based
Design: host or cells: HEK293
Settings: 5 μM valsartan, 5 min
MEASURED PARAMETER: IC50 (µM)
Give bare numbers, in µM.

For the 3 molecules below, give their IC50 values.
1. CC(C)=CCC[C@](C)(O[C@@H]1O[C@H](CO[C@@H]2O[C@H](CO)[C@@H](O)[C@H](O)[C@H]2O)[C@@H](O)[C@H](O)[C@H]1O)[C@H]1CC[C@]2(C)[C@@H]1[C@H](O)C[C@@H]1[C@@]3(C)CC[C@H](O[C@@H]4O[C@H](CO)[C@@H](O)[C@H](O)[C@H]4O[C@@H]4O[C@H](CO)[C@@H](O)[C@H](O)[C@H]4O)C(C)(C)[C@@H]3CC[C@]12C [Rb1, ginsenoside Rb1]
2. CC(C)=CCC[C@](C)(O[C@@H]1O[C@H](CO[C@@H]2O[C@@H](CO)[C@H](O)[C@H]2O)[C@@H](O)[C@H](O)[C@H]1O)[C@H]1CC[C@]2(C)[C@@H]1[C@H](O)C[C@@H]1[C@@]3(C)CC[C@H](O[C@@H]4O[C@H](CO)[C@@H](O)[C@H](O)[C@H]4O[C@@H]4O[C@H](CO)[C@@H](O)[C@H](O)[C@H]4O)C(C)(C)[C@@H]3CC[C@]12C [Rc, ginsenoside Rc]
3. CO[C@H]1/C=C/O[C@@]2(C)Oc3c(C)c(O)c4c(O)c(c(/C=N/N5CCN(C)CC5)c(O)c4c3C2=O)NC(=O)/C(C)=C\C=C\[C@H](C)[C@H](O)[C@@H](C)[C@@H](O)[C@@H](C)[C@H](OC(C)=O)[C@@H]1C [Rifampin, rifampin, reference compound]

Result ::
1. 24.1
2. 13.6
3. 13.8

Query :: Quick one: give measured IC50 for CC(C)=CCC[C@](C)(O[C@@H]1O[C@H](CO[C@@H]2OC[C@H](O)[C@H](O)[C@H]2O)[C@@H](O)[C@H](O)[C@H]1O)[C@H]1CC[C@]2(C)[C@@H]1[C@H](O)C[C@@H]1[C@@]3(C)CC[C@H](O[C@@H]4O[C@H](CO)[C@@H](O)[C@H](O)[C@H]4O[C@@H]4O[C@H](CO)[C@@H](O)[C@H](O)[C@H]4O)C(C)(C)[C@@H]3CC[C@]12C [Rb2, ginsenoside Rb2]
Result :: 8.8
